- Test system: S. aureus
- protocol_text: Effects of aromatic esters of GMCHA on growth of S. aureus
- Assay type: cell-based
- run_conditions: growth
Measured S. aureus IC100 values are reported for all entries that follow.
Reply with just the number (in µM).

Cc1ccc(OC(=O)C2CCC(CNC(=N)N)CC2)cc1 (centres unmarked) :: 120
CC(C)(C)c1ccc(OC(=O)C2CCC(CNC(=N)N)CC2)cc1 (centres unmarked) :: 15

Kindly note: S. aureus, N=C(N)NCC1CCC(C(=O)Oc2ccc(-c3ccccc3)cc2)CC1 (centres unmarked) , S. aureus IC100 value reported: 2

Kindly note: S. aureus, CCc1ccc(OC(=O)C2CCC(CNC(=N)N)CC2)cc1 (centres unmarked) , S. aureus IC100 value reported: 50
